Each recorded value in this set is attributed to ChEMBL document CHEMBL1201862.

biological target: Peroxisome proliferator-activated receptor gamma/Nuclear receptor coactivator 3 (Homo sapiens); format: functional;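 note: agonist potency for raising coactivator recruitment to the receptor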
Sequence (P37231 whole entry): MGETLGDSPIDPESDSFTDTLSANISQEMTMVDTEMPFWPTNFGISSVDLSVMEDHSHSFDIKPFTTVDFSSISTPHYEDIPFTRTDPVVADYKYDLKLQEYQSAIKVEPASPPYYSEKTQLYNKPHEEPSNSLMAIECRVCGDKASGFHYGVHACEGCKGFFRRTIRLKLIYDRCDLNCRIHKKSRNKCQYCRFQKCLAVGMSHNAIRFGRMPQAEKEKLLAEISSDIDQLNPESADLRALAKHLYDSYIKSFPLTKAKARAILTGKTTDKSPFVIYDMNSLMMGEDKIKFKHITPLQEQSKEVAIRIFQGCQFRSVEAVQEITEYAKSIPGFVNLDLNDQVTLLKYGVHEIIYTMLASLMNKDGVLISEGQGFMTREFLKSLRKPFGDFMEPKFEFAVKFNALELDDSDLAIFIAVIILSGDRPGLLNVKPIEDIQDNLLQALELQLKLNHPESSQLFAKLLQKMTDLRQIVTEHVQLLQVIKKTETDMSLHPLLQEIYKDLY
Sequence (Q9Y6Q9 whole entry, further chain): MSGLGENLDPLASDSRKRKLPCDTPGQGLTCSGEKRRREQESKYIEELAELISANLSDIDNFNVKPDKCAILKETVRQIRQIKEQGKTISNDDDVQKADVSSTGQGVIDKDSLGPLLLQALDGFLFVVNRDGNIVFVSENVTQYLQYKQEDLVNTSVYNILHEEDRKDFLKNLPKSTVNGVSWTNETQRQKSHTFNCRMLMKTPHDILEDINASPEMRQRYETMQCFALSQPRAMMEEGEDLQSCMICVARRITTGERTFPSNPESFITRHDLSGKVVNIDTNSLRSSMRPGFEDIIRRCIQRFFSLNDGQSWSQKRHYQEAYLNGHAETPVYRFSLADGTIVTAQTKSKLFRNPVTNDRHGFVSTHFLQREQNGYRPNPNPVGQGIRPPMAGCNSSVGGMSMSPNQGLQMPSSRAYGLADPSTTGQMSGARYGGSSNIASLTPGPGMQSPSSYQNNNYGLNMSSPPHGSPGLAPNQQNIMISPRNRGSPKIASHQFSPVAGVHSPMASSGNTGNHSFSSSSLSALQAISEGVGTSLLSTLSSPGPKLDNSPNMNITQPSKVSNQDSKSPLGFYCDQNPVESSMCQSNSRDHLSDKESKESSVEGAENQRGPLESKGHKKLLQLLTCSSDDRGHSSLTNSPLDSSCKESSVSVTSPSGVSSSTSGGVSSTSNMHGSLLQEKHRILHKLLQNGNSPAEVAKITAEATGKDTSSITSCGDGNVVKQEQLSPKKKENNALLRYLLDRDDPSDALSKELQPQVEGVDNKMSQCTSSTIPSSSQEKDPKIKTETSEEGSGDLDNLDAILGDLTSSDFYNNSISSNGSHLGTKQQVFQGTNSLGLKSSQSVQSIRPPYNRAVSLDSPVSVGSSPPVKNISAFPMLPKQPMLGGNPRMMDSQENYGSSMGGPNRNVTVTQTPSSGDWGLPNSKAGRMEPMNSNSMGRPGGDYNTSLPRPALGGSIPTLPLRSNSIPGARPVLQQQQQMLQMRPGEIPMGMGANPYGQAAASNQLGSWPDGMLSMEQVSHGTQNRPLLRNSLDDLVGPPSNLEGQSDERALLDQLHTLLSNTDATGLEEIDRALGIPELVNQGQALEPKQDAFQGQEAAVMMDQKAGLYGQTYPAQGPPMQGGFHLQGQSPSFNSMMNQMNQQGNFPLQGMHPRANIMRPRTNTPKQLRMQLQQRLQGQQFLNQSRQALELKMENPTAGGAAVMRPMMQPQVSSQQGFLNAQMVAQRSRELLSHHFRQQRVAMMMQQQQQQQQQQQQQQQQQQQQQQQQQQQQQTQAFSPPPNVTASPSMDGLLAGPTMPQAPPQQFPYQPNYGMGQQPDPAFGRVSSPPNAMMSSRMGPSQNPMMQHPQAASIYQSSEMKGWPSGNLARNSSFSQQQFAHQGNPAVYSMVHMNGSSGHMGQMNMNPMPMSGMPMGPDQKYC
In this section, each of the compounds is paired with its reported EC50.

As a guide, the following entries are already answered.
Substance smiles	EC50
O=C(Nc1ccc(N2CCCCC2)cc1)c1cncc(Br)c1	> 79.4 µM (not active)
C=CCN1C=CC(=C/C=C(/C#N)C(=O)OCC)C=C1	> 79.4 µM (not active)
CC(C)CCNC(=O)NC(=O)COC(=O)/C=C/c1cnc2ccccc2n1	35.9 µM (not active)

*Q* Given "O=C(Nc1ccc2oc(-c3ccc4ccccc4c3)nc2c1)c1ccc2c(c1)OCCO2" , respond with its EC50.
*A* 37.1 µM (not active)

###

test: inhibitors of intracellular T. cruzi replication, confirmation, NIH3T3 host cells, beta-gal luminescence (AID 2044); format: functional, cell-based;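 note: intracellular parasites grown in NIH/3T3 mouse fibroblasts as host cells; luminescent beta-galactosidase reporter signal from transgenic T. cruzi replicating inside host cells; inhibitors lower the luminescence signal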
Calls of active or inactive are those of the source.
Parameter: EC50

As a guide, the following entries are already answered.
Molecule	EC50
O=C(CNC(=S)N(Cc1ccccc1)Cc1cccnc1)NC1CCCCC1	516 nM (active)
CN(Cc1c[nH]c2ccccc12)C1CCCCC1	699 nM (active)
CCc1cccc2c(C(=O)COC(=O)c3ccc(O)cc3)c[nH]c12	2890 nM (active)
Cc1ccccc1OCC(O)CN1CCN(CCN2C(=O)c3cccc4cccc(c34)C2=O)CC1 (stereo unspecified)	851 nM (active)
COc1ccc(/C(C)=N/NC(=O)c2cccc(S(=O)(=O)N3CCCC3)c2)c(O)c1	1050 nM (active)

Continue with the molecule presented below.
*Q* Given "CC1=[N+](C)c2ccc3ccccc3c2C1(C)C" , respond with its EC50.
*A* 2830 nM (active)

###

target: Corticotropin-releasing factor receptor 2/Corticotropin-releasing factor-binding protein (Homo sapiens, UniProt P24387+Q13324); assay: activators of CRF receptor 2 with binding protein – uHTS hits, confirmation (AID 602473); assay type: functional; settings: read-out: EC50_Mean
Sequence (Q13324 whole entry): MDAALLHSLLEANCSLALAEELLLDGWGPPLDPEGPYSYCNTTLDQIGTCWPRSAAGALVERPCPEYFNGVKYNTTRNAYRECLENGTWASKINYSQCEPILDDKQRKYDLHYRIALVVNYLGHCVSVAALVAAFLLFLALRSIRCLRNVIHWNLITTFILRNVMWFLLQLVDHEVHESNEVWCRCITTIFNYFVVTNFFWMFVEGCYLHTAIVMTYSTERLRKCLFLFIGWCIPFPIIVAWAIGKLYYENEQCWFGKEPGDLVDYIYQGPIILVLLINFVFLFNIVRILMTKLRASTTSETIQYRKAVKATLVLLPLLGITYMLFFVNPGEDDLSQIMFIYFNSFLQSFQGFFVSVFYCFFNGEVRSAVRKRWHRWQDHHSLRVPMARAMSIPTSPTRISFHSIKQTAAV
Sequence (P24387 whole entry): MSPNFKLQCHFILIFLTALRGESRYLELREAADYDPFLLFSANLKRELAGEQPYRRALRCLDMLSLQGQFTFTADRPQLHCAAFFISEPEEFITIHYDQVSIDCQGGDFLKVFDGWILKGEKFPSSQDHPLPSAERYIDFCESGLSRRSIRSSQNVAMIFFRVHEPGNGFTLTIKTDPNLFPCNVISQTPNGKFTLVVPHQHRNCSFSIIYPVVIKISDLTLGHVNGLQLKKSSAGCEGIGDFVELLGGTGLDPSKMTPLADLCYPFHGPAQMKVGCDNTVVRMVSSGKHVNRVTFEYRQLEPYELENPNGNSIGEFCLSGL
Activity calls are given as the source filed them.
Respond only with the outcome that fits, drawn from active, inactive

Compound	Class assignment
CN(NC(=O)Nc1ccccc1)c1cnn(C)c(=O)c1Cl	inactive

*Q* How did this test come out for Cc1ccc(C(=O)N/C(=C\c2ccc(-c3ccc([N+](=O)[O-])cc3)o2)C(=O)NC2CCS(=O)(=O)C2)cc1 (stereo not given) ?
*A* active

*Q* How did this test come out for "COC(=O)c1sc(-c2ccc(C(C)(C)C)cc2)cc1NC(=O)COCC(=O)O" ?
*A* inactive

*Q* How did this test come out for "CCCCCC(=O)NC(=S)NNC(=O)c1ccc([N+](=O)[O-])cc1" ?
*A* active

*Q* How did this test come out for "CC(C)(C)OC(=O)N1CCC(c2cc(O)n3ncc(C(=O)NC4CCCC4)c3n2)CC1" ?
*A* inactive

*Q* How did this test come out for "CC(=O)Nc1ccc(Sc2ncccc2C(=O)Nc2ccc(OC(F)(F)F)cc2)cn1" ?
*A* active

###

In this section, each of the molecules is paired with its reported IC50.
biological target: UniProt:Q9H0H5; assay: MgcRacGAP GTPase-activating activity inhibitors, confirmation, biochemical, ADP Hunter fluorescence, primary and confirmatory (AID 624330); assay type: functional
Sequence (Q9H0H5 whole entry): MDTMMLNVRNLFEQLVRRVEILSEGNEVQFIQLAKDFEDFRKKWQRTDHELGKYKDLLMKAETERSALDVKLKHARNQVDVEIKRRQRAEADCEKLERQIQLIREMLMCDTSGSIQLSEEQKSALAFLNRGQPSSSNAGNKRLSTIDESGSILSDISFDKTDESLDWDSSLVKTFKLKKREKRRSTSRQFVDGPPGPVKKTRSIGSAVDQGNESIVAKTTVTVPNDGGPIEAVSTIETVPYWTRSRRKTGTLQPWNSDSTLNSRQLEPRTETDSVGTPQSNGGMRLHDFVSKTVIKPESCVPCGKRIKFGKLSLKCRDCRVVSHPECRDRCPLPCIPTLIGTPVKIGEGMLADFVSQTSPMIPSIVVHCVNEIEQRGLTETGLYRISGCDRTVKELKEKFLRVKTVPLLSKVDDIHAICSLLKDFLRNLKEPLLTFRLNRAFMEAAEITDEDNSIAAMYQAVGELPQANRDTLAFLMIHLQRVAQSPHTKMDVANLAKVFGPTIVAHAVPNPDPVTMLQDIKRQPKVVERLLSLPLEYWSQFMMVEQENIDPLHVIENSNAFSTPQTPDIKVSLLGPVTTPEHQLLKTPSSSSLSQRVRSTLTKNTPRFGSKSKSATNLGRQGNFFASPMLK
The source made the active and inactive calls.

As a guide, the following entries are already answered.
Molecule	IC50
C=CCc1cccc(/C=N/c2cc(Br)ccc2O)c1O	14.7 µM (active)
Cc1[nH]c2ccccc2c1N=Nc1c(C)n(C)n(-c2ccccc2)c1=O	41.1 µM (active)
Cn1c(N/N=C/c2c[nH]c3ccccc23)nc2ccccc21	44.4 µM (active)
COc1cccc(CN2CCN(Cc3cc(OC)c(OC)cc3[N+](=O)[O-])CC2)c1.O=C(O)C(=O)O	56.8 µM (active)

*Q* GET IC50 where system = UniProt:Q9H0H5 and item = "c1ccc(CNc2ccc(N3CCOCC3)cc2)cc1"
*A* 8.18 µM (active)

*Q* GET IC50 where system = UniProt:Q9H0H5 and item = CCOc1ccccc1NC(=O)C(NCCN(C)C)c1ccccc1 (configuration not stated)
*A* 91.1 µM (active)
